Origin of values: PubChem BioAssay (NCI)

- Test system: KM12 colon
- Method Description: NCI-60 one-dose screen, 48 h (100 = growth as untreated, 0 = no growth, -100 = all killed)
- Measurement Setup: 10 µM unless noted
Compounds without any hit were thinned out: in the full panel of roughly 83,000, 20% have a hit.

Molecule	Units Symbol	growth
O=c1oc2ccc(Br)cc2c(=O)n1-c1ccc(I)cc1F	%	-18
COc1cc(C(=O)NN=C2c3ccccc3-c3ccccc32)cc(OC)c1OC	%	29.3
CCCCc1ccc(NS(=O)(=O)c2cc3c4c(c2)CCN4C(=O)CC3)cc1	%	21
Cc1ccccc1CNC(=O)C1CN(c2ccc(Cl)cc2)N(c2ccc(Cl)cc2)C1=O (stereo not drawn)	%	87.2
CNCCNc1nc2ccccc2c2c(=O)c3cc(F)ccc3sc12	%	-33.8
CCOc1ccc(Nc2ccnc3cc(Cl)ccc23)cc1	%	6.96
CCc1ccc(CNCC(O)c2ccccc2)cc1 (stereo not drawn)	%	72.5
COc1ccc(C2C3=C(COC3=O)N(CCO)c3cc4c(cc32)CCC4)cc1 (stereo not drawn)	%	21.2
Cc1[nH]c2ccccc2c(=O)c1CC=C(Cl)Cl	%	18.2
COc1ccc(C2C3=C(COC3=O)N(CCO)c3cc4c(cc32)CCC4)cc1OC (stereo not drawn)	%	-8.65
COc1ccc(OC)c(/C=C/C(=O)c2c(C)nc3ccccc3c2/C=C/c2ccccc2)c1	%	69.4
COC(=O)c1c2c(c(C)[n+]([O-])c1C)C(=O)C=C(NCc1ccccc1)C2=O	%	-10.5
Nc1ccc(-c2nn3c(CCC(=O)c4nc5ncccc5[nH]4)nnc3s2)c(O)c1	%	98.5

###

- Tested on: RPMI-8226 leukemia
- Method Description: NCI-60 one-dose screen, 48 h (100 = growth as untreated, 0 = no growth, -100 = all killed)
- Measurement Setup: 10 µM unless noted
- Method: Growth inhibition of the RPMI-8226 human tumor cell line is measured as a screen for anti-cancer activity. Cells are grown in 96 well plates and exposed to the test compound for 48 hours. Compounds are tested at a single concentration, which is 10^-5 M for most compounds. The reported endpoint is percent growth (GI% or GIPRCNT), where numbers from 0 - 100% represent growth inhibition, and numbers from -100% - 0 represent cell death. For example, a value of 40 represents 60% growth inhibition. […]
This is part of a sample that, as a whole, favours compounds with a hit. Of some 83,000 tested, about 20% had one in any assay.
Would you mind labelling by growth? At or over 30% is Criterion met, under is Criterion not met.

Compound	Tested On	Category
COc1cc(C(=O)O/N=C(\N)Cc2cccc3ccccc23)cc(OC)c1OC	RPMI-8226 leukemia	Criterion not met
O=c1oc2ccc(F)cc2c(=O)n1-c1ccc(I)cc1F	RPMI-8226 leukemia	Criterion not met
Cc1c(-c2noc(-c3ccc([N+](=O)[O-])cc3)n2)no[n+]1[O-]	RPMI-8226 leukemia	Criterion met
COc1ccc(C2=C(c3cccc(OC)c3)C(=O)c3ccc(C)nc3C2=O)cc1	RPMI-8226 leukemia	Criterion met
CCOC(=O)c1cc2c(n1Cc1ccccc1OC)-c1oncc1CCC2	RPMI-8226 leukemia	Criterion not met
COc1cc(C(C)n2cc(-c3ccccc3)nn2)ccc1OC1CCCC1 (stereo not drawn)	RPMI-8226 leukemia	Criterion met
CCOC(=O)c1ccc(N=Cc2sc(=O)[nH]c2O)cc1	RPMI-8226 leukemia	Criterion met
CCCCc1ccc(NS(=O)(=O)c2cc3c4c(c2)CCN4C(=O)CC3)cc1	RPMI-8226 leukemia	Criterion not met
O=C(/C=C/c1ccc(Cl)cc1)c1ccc(Nc2nc(NCCO)nc(N3CCOCC3)n2)cc1	RPMI-8226 leukemia	Criterion not met
COc1ccc(C2Nc3ncnc(N)c3N=C3c4ccccc4C(=O)C32)cc1 (stereo not drawn)	RPMI-8226 leukemia	Criterion met
Nc1nc(Nc2cccc(F)c2)nc2ccccc12	RPMI-8226 leukemia	Criterion not met
COc1ccc(C2=NN(/C=C3\SC(=O)NC3=Nc3ccc(F)cc3)C(c3ccc(F)cc3)C2)cc1 (stereo not drawn)	RPMI-8226 leukemia	Criterion met
Cc1ccccc1CNC(=O)C1CN(c2ccc(Cl)cc2)N(c2ccc(Cl)cc2)C1=O (stereo not drawn)	RPMI-8226 leukemia	Criterion met
Cn1nc(C(C)(C)C)cc1NC(=O)Cc1ccc(/C=C2\C(=O)Nc3ccccc32)cc1	RPMI-8226 leukemia	Criterion not met
COc1ccc(C2C3=C(COC3=O)N(CCO)c3cc4c(cc32)OCCO4)cc1 (stereo not drawn)	RPMI-8226 leukemia	Criterion met
COc1ccccc1C(=O)/C=C/c1ccccc1	RPMI-8226 leukemia	Criterion not met
OC(c1ccccc1)c1nnc(SCc2ccccc2)n1Cc1ccccc1 (stereo not drawn)	RPMI-8226 leukemia	Criterion met
CC1(O)COCCCCOc2c(CN)cccc2NC(=O)c2nc(cnc2N)-c2ccc(cc2)S(=O)(=O)C(C)(C)C1 (stereo not drawn)	RPMI-8226 leukemia	Criterion not met
CC(C)c1ccc(S(=O)(=O)NC(=O)NC2CCCC2)cc1	RPMI-8226 leukemia	Criterion met
CC1=C(C(=O)OCC2CCN(C(=O)OC(C)(C)C)CC2)[C@H](c2cccc(C#N)c2)C2=C(CC(C)(C)CC2=O)N1	RPMI-8226 leukemia	Criterion met
O=S(=O)(Nc1ncccn1)c1ccc(NC2Nc3nc4ccccc4nc3S2)cc1 (stereo not drawn)	RPMI-8226 leukemia	Criterion met
c1ccc(CNc2nc(Nc3ccccc3)nc3ccccc23)cc1	RPMI-8226 leukemia	Criterion met

###

- Test system: 786-0 renal
- Method Description: NCI-60 one-dose screen, 48 h
- Measurement Setup: 10 µM unless noted
This is part of a sample that, as a whole, favours compounds with a hit. Of some 83,000 tested, about 20% had one in any assay. Calls of active or inactive are those of the source. The calls were made as follows: active = growth percent below 10; inactive = the rest.
Labels: y (active), n (inactive)

Compound	Tested On	Category
O=c1c(-c2nc3ccccc3[nH]2)cc2ccccc2n1Cc1cn(Cc2ccc(N3CCOCC3)cc2)nn1	786-0 renal	n
COc1cc([C@@H]2NC(=O)NC(C)=C2C(=O)Nc2nc(-c3ccc(Cl)cc3)cs2)ccc1O	786-0 renal	n
O=c1oc2ccc(Cl)cc2c(=O)n1-c1ccc(F)cc1F	786-0 renal	y
N#Cc1c(N)nc2c(c1N)C(c1ccc(F)cc1)c1ccc(N)cc1O2 (stereo unspecified)	786-0 renal	n
CN1C(=O)N(C)C2C1NN=c1s/c(=C\c3c[nH]c4ccccc34)c(=O)n12 (stereo unspecified)	786-0 renal	n
COC(=O)C1=C(C)NC(C)=C(C(=O)OC)C(N2C(=O)CCC2=O)C1 (stereo unspecified)	786-0 renal	n
CC(C)[C@H](NC(=O)Cn1cc(C(=O)O)nn1)C(=O)O	786-0 renal	n
CC1CCCCN1CCCNC(=O)c1ccc2c(c1)sc1nc(-c3ccc(F)cc3)cn12 (stereo unspecified)	786-0 renal	n
CCOc1ccc2nc(C)cc(Nc3ccc(Br)cc3)c2c1	786-0 renal	n
O=C(Cn1cc(COc2ncnc3c2cnn3-c2ccccc2)nn1)Nc1cccc2ccccc12	786-0 renal	n
COC(=O)C1(C)COP(=O)(Nc2ccc(OC)cc2)OC1 (stereo unspecified)	786-0 renal	n

###

- Tested on: HS 578T breast
- Method Description: NCI-60 one-dose screen, 48 h (100 = growth as untreated, 0 = no growth, -100 = all killed)
- Measurement Setup: 10 µM unless noted
Compounds without any hit were thinned out: in the full panel of roughly 83,000, 20% have a hit.
We'd kindly ask you to apply these growth classes: LOW (below 30%), MID (30% to below 90%), HIGH (90% or more)

Compound	Tested On	Category
CCOC(=O)c1cnc2c(C)cccc2c1Nc1ccc(C(C)=O)cc1	HS 578T breast	LOW
O=C(NN1C(=O)CSC1c1ccc(Cl)cc1)c1[nH]c2ccc(F)cc2c1-c1ccccc1 (configuration not stated)	HS 578T breast	HIGH
Cc1nc(Nc2ccccn2)sc1C(=O)/C=C/c1ccc(Cl)cc1	HS 578T breast	LOW
CCOC(=O)C(CC(=O)O)=C(C(=O)OCC)C(=O)OCC	HS 578T breast	HIGH
CCCCC1COc2cccc3c2N1C=C/C3=C\C(=O)N(C)c1ccccc1 (configuration not stated)	HS 578T breast	MID
O=C(NC1CCN(Cc2ccccc2)CC1)c1cc(C(=O)NC2CCN(Cc3ccccc3)CC2)cc(C(=O)NC2CCN(Cc3ccccc3)CC2)c1	HS 578T breast	MID
CC[C@H](C)[C@@H](C(=O)OC)n1cc(CNC(=O)[C@@H](Cc2ccccc2)NC(=O)OCc2ccccc2)nn1	HS 578T breast	HIGH
OC(c1ccccc1)c1nnc(SCc2ccccc2)n1Cc1ccccc1 (configuration not stated)	HS 578T breast	HIGH
Clc1ccc(COc2ccc(Nc3ncnc4onc(-c5ccccc5)c34)cc2)cc1	HS 578T breast	MID
CN(C)c1ccc(N=Cc2ccc(N3CCOCC3)cc2)cc1	HS 578T breast	HIGH
O=C(Nc1ccc(I)cc1F)c1cc(Cl)ccc1O	HS 578T breast	LOW
CCCCCCc1cc2cc(-c3nc4ccccc4[nH]3)c(=Nc3ccccc3C)oc2cc1O	HS 578T breast	MID
COc1cc2nc(-c3cnc(N(C)C)nc3)nc(NC3CCN(Cc4ccccc4)CC3)c2cc1OC	HS 578T breast	LOW
COc1cc(C(=O)O/N=C(\N)Cc2cccc3ccccc23)cc(OC)c1OC	HS 578T breast	LOW
OC(CNC1CCCCC1)Cn1c2ccc(I)cc2c2cc(I)ccc21 (configuration not stated)	HS 578T breast	MID
O=c1oc2ccc(F)cc2c(=O)n1-c1ccc(Cl)cc1F	HS 578T breast	LOW
